Every entry's value here was drawn from patent US20240336572A1.

Below is a list of entries, each paired with its recorded pEC50 value.
Molecular target: AMPK 111 (Homo sapiens, UniProt Q13131+Q9Y478)
Construct: open reading frames encoding the full-length α1, β1 and δ1 subunits of human AMPK
Sequence (Q13131 whole entry): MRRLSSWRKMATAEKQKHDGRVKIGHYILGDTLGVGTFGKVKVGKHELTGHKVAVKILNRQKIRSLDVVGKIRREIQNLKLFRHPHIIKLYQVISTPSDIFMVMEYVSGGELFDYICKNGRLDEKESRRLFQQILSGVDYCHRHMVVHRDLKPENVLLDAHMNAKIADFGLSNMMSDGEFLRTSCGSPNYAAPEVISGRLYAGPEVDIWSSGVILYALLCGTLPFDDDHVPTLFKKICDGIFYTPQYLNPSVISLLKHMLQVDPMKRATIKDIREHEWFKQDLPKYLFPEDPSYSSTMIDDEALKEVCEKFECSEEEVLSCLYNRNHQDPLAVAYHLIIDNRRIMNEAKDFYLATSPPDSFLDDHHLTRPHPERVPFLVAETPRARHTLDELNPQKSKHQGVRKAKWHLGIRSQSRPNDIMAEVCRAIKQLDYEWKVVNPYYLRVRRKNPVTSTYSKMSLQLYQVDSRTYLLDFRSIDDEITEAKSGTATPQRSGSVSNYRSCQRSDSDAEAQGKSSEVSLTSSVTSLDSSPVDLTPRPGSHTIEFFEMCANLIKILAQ
Sequence (Q9Y478 whole entry): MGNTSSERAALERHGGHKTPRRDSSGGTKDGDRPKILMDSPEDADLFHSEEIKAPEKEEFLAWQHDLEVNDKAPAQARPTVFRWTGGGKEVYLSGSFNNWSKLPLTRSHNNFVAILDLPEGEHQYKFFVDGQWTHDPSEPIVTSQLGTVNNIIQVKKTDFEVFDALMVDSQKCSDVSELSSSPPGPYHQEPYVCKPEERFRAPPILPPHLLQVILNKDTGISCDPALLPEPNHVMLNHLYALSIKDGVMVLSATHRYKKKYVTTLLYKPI
Sequence (P54619 whole entry partner): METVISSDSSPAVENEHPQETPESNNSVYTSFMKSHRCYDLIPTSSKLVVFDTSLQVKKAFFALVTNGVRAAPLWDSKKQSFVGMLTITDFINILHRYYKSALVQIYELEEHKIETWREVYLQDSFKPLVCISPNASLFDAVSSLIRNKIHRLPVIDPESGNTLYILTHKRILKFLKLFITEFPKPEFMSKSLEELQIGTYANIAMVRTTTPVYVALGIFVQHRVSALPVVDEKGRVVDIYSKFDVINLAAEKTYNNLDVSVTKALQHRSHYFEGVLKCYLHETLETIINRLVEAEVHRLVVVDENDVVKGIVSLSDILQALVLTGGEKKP
Experiment: Biochemical profiling of AMPK activators by AMPK111 (HTRF/TR-FRET assay, SAMS peptide, PP2A dephosphorylation protection)
Conditions: phosphorylated AMPK 111 (α1β1δ1 as printed); 11 point dilution, duplicate; 4-parameter fit
Description: The biochemical EC50 (half-maximal concentration required for full activation) of compounds for the activation of AMPK was evaluated by HTRF assay using LANCE Ultra ULight-Acetyl-CoA Carboxylase (SAMS) peptide (commercially available, Perkin Elmer catalog TRF0133-M). Following a fifteen-minute room temperature incubation, 5 μL of 30 nM protein phosphatase PP2A (isolation detailed above) diluted in the assay buffer was added to the plate, to dephosphorylate pThr172 of AMPK. […]
For clarity, pEC50 is expressed as the negative log10 of concentration in mol/L.

compound	value.kind	recorded.value
O=C(CCc1n[nH]c2cc(Cl)c(-c3ccc(-c4ccccc4O)cc3)cc12)OC1OC(C(=O)O)C(O)C(O)C1O (centres unmarked)	pEC50	7.41
O=C(O)CCc1n[nH]c2cc(Cl)c(-c3ccc(-c4cccc(Cl)c4O)cc3)cc12	pEC50	6.91

Lab note: measured pEC50 of "O=C(O)CCc1n[nH]c2cc(Cl)c(-c3ccc(-c4ccccc4O)cc3F)cc12" was 6.72

Lab note: measured pEC50 of "CNC(=O)c1ccc(-c2ccc(-c3cc4c(CCC(=O)O)n[nH]c4cc3Cl)cc2)cc1" was 8.22

Lab note: measured pEC50 of "O=C(O)CCc1n[nH]c2cc(Cl)c(-c3ccc(-c4ccc(F)cc4O)cc3)cc12" was 6.95

Lab note: measured pEC50 of "NCc1ccc(-c2ccc(-c3cc4c(CCC(=O)O)n[nH]c4cc3Cl)cc2)c(O)c1" was 7.59

Lab note: measured pEC50 of CS(=N)(=O)c1ccc(-c2ccc(-c3cc4c(CCC(=O)O)n[nH]c4cc3Cl)cc2)cc1 (centres unmarked) was 7.72

Lab note: measured pEC50 of "COc1cc(F)cc(-c2ccc(-c3cc4c(CCC(=O)O)n[nH]c4cc3Cl)cc2)c1O" was 6.54
